Origin of values: BindingDB's records for doi:10.1016/j.bmc.2013.06.068

biological target: Sigma non-opioid intracellular receptor 1 (Rattus norvegicus, UniProt Q9R0C9); test: Displacement of [3H](+)-pentazocine from sigma 1 receptor in rat brain homogenates after 120 mins by liquid scintillation counting
Sequence (Q9R0C9 whole entry): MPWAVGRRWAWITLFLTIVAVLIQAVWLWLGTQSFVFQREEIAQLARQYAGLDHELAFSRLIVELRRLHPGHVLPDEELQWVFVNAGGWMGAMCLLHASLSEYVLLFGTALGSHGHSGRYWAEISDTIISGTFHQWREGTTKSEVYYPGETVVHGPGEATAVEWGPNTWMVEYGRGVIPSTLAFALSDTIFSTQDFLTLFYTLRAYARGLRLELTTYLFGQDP
Decision: Ki beneath 60 nM gives 1; Ki meeting or exceeding 60 nM gives 0.

Solved cases below.
# molecule, assayedSystem, answerLabel
records = [
    ("CN(C)[C@H]1CCCC[C@@H]1OC/C=C/c1ccccc1", "Sigma non-opioid intracellular receptor 1 (Rattus norvegicus, UniProt Q9R0C9)", 1),
    ("CN(CCCc1ccccc1)[C@H]1CCCC[C@@H]1OCCCc1ccccc1", "Sigma non-opioid intracellular receptor 1 (Rattus norvegicus, UniProt Q9R0C9)", 0),
    ("CN(CCCc1ccccc1)[C@H]1CCCC[C@@H]1O", "Sigma non-opioid intracellular receptor 1 (Rattus norvegicus, UniProt Q9R0C9)", 1),
    ("CN(CCc1ccccc1)[C@H]1CCCC[C@@H]1O", "Sigma non-opioid intracellular receptor 1 (Rattus norvegicus, UniProt Q9R0C9)", 0),
]

We now examine a further compound.
query: Lab log: compare recorded Ki with 60 nM; is it strictly lower for CN(CCc1ccccc1)[C@H]1CCCC[C@@H]1OCCCc1ccccc1 ?
result: 0
